Molecular target: UniProt Q9Y297
Sequence (Q9Y297 whole entry): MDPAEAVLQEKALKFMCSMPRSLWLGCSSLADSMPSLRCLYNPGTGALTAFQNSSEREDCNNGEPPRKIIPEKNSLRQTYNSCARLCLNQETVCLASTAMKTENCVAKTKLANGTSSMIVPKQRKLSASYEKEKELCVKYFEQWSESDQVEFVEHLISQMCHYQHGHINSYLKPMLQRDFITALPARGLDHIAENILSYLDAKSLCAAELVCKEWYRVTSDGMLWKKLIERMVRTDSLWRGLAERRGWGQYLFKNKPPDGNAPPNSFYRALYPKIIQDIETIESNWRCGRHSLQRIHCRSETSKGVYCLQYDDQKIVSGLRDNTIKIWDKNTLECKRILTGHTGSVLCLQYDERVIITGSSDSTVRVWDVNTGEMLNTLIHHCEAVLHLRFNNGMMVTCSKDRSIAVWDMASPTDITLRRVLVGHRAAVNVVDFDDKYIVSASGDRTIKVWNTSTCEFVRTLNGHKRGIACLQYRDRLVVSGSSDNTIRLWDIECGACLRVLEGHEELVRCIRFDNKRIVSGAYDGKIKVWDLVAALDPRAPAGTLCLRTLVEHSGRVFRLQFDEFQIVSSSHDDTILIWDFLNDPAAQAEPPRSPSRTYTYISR
Sequence (P63208 whole entry partner): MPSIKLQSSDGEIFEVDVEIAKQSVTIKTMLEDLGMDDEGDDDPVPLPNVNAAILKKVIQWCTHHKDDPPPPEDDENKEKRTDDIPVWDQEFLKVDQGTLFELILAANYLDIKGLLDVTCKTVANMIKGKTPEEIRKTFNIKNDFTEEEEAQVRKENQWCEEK
Test: Fluorescence polarisation (FP) binding assay with fluorescein-tagged IκB peptide
Settings: Tables 1, 3, 7, 8; 10 nM fluorescein-tagged IκB peptide; read-out: FP Assay IC50/μM
Starred links: 1 amine or outer side, 2 acyl side, 3 side chain; linkers in the order of their positions; H or OH if unused. Non-standard residues stand in square brackets, D forms with d. Residues, ends and D or L forms follow the SMILES beside them. *: point of attachment. Phe(4-NO2) = N[C@@H](Cc1ccc([N+](=O)[O-])cc1)C(=O)O; Benzoyl(2-COOH) = O=C(O)c1ccccc1C(=O)*; Phe(3-F) = N[C@@H](Cc1cccc(F)c1)C(=O)O; 1Nal = N[C@@H](Cc1cccc2ccccc12)C(=O)O; 3Pal = N[C@@H](Cc1cccnc1)C(=O)O; pS = N[C@@H](COP(=O)(O)O)C(=O)O; Suc = O=C(CCC(=O)[*:2])[*:1]; Tos = Cc1ccc(S(=O)(=O)*)cc1; X6 = O=C(O)C1CCC(C(=O)*)CC1; MeOSuc = COC(=O)CCC(=O)*; Propionyl = CCC(=O)*
Test Readout: IC50

- Compound: "CC[C@H](C)[C@H](NC(=O)CNC(=O)[C@H](CCC(=O)O)NC(=O)CCC(=O)O)C(=O)N[C@@H](Cc1ccccc1)C(=O)N[C@@H](CCC(=O)O)C(N)=O [Suc-EGIFE-NH2] (Suc-EGIFE-NH2)"
  Test Readout: "IC50"
  Reported Measurement: "> 100 µM"
- Compound: "NC(=O)[C@H](Cc1ccc([N+](=O)[O-])cc1)NC(=O)[C@H](Cc1ccccc1)NC(=O)CNC(=O)[C@H](CCC(=O)O)NC(=O)CCC(=O)O [Suc-EGF-F(4NO2)-NH2] (Suc-EGF[Phe(4-NO2)]-NH2)"
  Test Readout: "IC50"
  Reported Measurement: "> 100 µM"
- Compound: "Cc1ccc(S(=O)(=O)N[C@H](CC(=O)O)C(=O)N[C@@H](CCC(=O)O)C(=O)NCC(=O)N[C@@H](Cc2cccc(F)c2)C(=O)N[C@@H](Cc2c[nH]c3ccccc23)C(=O)N[C@@H](CC(=O)O)C(N)=O)cc1 [UBP027, Ts-dEGF(3F)WD-NH2] (Tos-[dD]EG[Phe(3-F)]WD-NH2)"
  Test Readout: "IC50"
  Reported Measurement: "0.034 µM"
- Compound: "NC(=O)[C@H](CCC(=O)O)NC(=O)[C@H](Cc1cccc2ccccc12)NC(=O)[C@H](Cc1cccnc1)NC(=O)CNC(=O)[C@H](CCC(=O)O)NC(=O)CCC(=O)O [Suc-EG-3Pal-1Nal-E-NH2] (Suc-EG[3Pal][1Nal]E-NH2)"
  Test Readout: "IC50"
  Reported Measurement: "3.63 µM"
- Compound: "COC(=O)CCC(=O)N[C@@H](CCC(=O)O)C(=O)NCC(=O)N[C@@H](Cc1cccc(F)c1)C(=O)N[C@@H](Cc1cccc2ccccc12)C(=O)N[C@@H](CCC(=O)O)C(N)=O [(MeO)Suc-EG-F(3F)-1Nal-E-NH2] (MeOSuc-EG[Phe(3-F)][1Nal]E-NH2)"
  Test Readout: "IC50"
  Reported Measurement: "1.6 µM"
- Compound: "CC[C@H](C)[C@H](NC(=O)CNC(=O)[C@H](CCC(=O)O)NC(=O)c1ccccc1C(=O)O)C(=O)N[C@@H](Cc1ccccc1)C(=O)N[C@@H](CCC(=O)O)C(N)=O [Phth-EGIFE-NH2] ({Benzoyl(2-COOH)}-EGIFE-NH2)"
  Test Readout: "IC50"
  Reported Measurement: "> 100 µM"
- Compound: "CCC(=O)N[C@H](CC(=O)O)C(=O)N[C@@H](CCC(=O)O)C(=O)NCC(=O)N[C@@H](Cc1cccc(F)c1)C(=O)N[C@@H](Cc1c[nH]c2ccccc12)C(=O)N[C@@H](CCC(=O)O)C(N)=O [UBP019, Et(CO)-dEGF(3F)WE-NH2] (Propionyl-[dD]EG[Phe(3-F)]WE-NH2)"
  Test Readout: "IC50"
  Reported Measurement: "0.145 µM"
- Compound: "NC(=O)[C@H](CCC(=O)O)NC(=O)[C@H](Cc1cccc2ccccc12)NC(=O)[C@H](Cc1ccc(O)cc1)NC(=O)CNC(=O)[C@@H](N)CCC(=O)O [EGY-1Nal-E-NH2] (H-EGY[1Nal]E-NH2)"
  Test Readout: "IC50"
  Reported Measurement: "> 100 µM"
- Compound: "CC[C@H](C)[C@H](NC(=O)CNC(=O)[C@H](COP(=O)(O)O)NC(=O)[C@H](CC(=O)O)NC(=O)[C@H](C)N)C(=O)N[C@@H](Cc1c[nH]cn1)C(=O)N[C@@H](CO)C(N)=O [AD-pS-GIHS-NH2] (H-AD[pS]GIHS-NH2)"
  Test Readout: "IC50"
  Reported Measurement: "> 100 µM"
- Compound: "CC(=O)N[C@H](CC(=O)O)C(=O)N[C@@H](CCC(=O)O)C(=O)NCC(=O)N[C@@H](Cc1cccc(F)c1)C(=O)N[C@@H](Cc1c[nH]c2ccccc12)C(=O)N[C@@H](CCC(=O)O)C(N)=O [UBP017, Ac-dEGF(3F)WE-NH2] (Ac-[dD]EG[Phe(3-F)]WE-NH2)"
  Test Readout: "IC50"
  Reported Measurement: "0.102 µM"
- Compound: "NC(=O)[C@H](CCC(=O)O)NC(=O)[C@H](Cc1ccccc1)NC(=O)[C@H](Cc1ccc(O)cc1)NC(=O)CNC(=O)[C@H](CCC(=O)O)NC(=O)CCC(=O)O [UBP007, Suc-EGYFE-NH2] (Suc-EGYFE-NH2)"
  Test Readout: "IC50"
  Reported Measurement: "1 µM"
- Compound: "C[C@H](NC(=O)CCC(=O)O)C(=O)NCC(=O)N[C@@H](Cc1cccc(F)c1)C(=O)N[C@@H](Cc1ccc([N+](=O)[O-])cc1)C(=O)N[C@@H](CCC(=O)O)C(N)=O [Suc-AG-F(3F)-F(4NO2)-E-NH2] (Suc-AG[Phe(3-F)][Phe(4-NO2)]E-NH2)"
  Test Readout: "IC50"
  Reported Measurement: "8.01 µM"
- Compound: "COc1ccc(C[C@H](NC(=O)[C@H](Cc2cccc(F)c2)NC(=O)CNC(=O)[C@H](CCC(=O)O)NC(=O)CCC(=O)O)C(=O)N[C@@H](CCC(=O)O)C(N)=O)cc1 [Suc-EG-F(3F)-Y(Me)-E-NH2] (Suc-EG[Phe(3-F)]Y(Me)E-NH2)"
  Test Readout: "IC50"
  Reported Measurement: "1.4 µM"
- Compound: "C[C@H](NC(=O)[C@@H](N)CCC(=O)O)C(=O)N[C@@H](Cc1cccc(F)c1)C(=O)N[C@@H](Cc1ccc([N+](=O)[O-])cc1)C(=O)N[C@@H](CCC(=O)O)C(N)=O [EA-F(3F)-F(4NO2)-E-NH2]"
  Test Readout: "IC50"
  Reported Measurement: "> 100 µM"
- Compound: "NC(=O)[C@H](CCC(=O)O)NC(=O)[C@H](Cc1cccc2ccccc12)NC(=O)[C@H](Cc1ccc(O)cc1)NC(=O)CNC(=O)[C@H](CCC(=O)O)NC(=O)CCC(=O)O [UBP009, Suc-EGY1NalE-NH2] (Suc-EGY[1Nal]E-NH2)"
  Test Readout: "IC50"
  Reported Measurement: "1.15 µM"
- Compound: "NC(=O)[C@H](CCC(=O)O)NC(=O)[C@H](Cc1ccccc1)NC(=O)[C@H](Cc1ccccc1)NC(=O)CNC(=O)[C@H](CCC(=O)O)NC(=O)C1CCC(C(=O)O)CC1 (stereo partly shown) [1,4-Chda-EGFFE-NH2] (X6-EGFFE-NH2)"
  Test Readout: "IC50"
  Reported Measurement: "> 100 µM"

====

Biological target: FBW7/Skp1 (Homo sapiens, UniProt Q969H0)
Sequence (Q969H0 whole entry, species assumed): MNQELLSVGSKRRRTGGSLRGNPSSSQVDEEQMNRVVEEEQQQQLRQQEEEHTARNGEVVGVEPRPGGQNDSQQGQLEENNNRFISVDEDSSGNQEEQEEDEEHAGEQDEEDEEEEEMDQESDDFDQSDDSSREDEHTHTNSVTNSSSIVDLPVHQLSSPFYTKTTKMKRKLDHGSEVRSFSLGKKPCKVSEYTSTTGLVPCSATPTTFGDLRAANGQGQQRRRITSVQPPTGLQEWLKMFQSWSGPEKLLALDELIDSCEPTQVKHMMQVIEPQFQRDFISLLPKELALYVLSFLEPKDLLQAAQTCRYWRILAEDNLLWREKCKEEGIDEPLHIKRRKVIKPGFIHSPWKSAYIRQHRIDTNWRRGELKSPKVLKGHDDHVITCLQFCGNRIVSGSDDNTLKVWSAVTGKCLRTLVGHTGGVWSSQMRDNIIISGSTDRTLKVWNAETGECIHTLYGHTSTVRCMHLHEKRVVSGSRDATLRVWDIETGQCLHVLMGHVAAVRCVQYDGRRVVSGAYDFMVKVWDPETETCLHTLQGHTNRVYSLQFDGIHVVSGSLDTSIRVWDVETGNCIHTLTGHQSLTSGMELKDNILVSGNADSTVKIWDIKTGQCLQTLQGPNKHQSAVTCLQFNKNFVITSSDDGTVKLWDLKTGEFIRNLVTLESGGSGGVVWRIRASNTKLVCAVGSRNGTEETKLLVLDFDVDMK
Sequence (P63208 whole entry partner, species assumed): as the sequence (P63208 whole entry partner) above
Sequence (Q13616 whole entry partner, species assumed): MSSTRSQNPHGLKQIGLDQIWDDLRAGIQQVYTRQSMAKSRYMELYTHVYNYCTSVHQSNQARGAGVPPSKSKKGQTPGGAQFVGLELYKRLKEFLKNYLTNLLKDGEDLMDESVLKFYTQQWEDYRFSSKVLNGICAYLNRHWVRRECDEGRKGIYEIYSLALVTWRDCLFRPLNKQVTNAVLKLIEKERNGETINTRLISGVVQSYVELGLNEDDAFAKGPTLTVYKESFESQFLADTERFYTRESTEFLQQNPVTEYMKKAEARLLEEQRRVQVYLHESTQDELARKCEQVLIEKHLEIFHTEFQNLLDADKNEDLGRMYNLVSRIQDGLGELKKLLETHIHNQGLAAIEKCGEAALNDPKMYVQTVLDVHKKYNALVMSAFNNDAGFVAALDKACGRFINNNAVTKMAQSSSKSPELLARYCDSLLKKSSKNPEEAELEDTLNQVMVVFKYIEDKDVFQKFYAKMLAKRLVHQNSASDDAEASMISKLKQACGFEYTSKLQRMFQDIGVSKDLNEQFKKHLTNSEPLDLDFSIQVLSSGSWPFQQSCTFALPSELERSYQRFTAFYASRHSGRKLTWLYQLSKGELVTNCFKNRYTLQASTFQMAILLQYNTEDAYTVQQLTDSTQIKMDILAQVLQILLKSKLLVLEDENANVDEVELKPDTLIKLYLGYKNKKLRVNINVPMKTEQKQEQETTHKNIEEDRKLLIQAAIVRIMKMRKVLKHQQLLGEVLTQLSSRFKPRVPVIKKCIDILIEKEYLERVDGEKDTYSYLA
Sequence (P62877 whole entry partner, species assumed): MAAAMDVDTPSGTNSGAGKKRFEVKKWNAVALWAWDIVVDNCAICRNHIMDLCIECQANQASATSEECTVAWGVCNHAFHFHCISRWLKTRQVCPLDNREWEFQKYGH
Assay: Selectivity assay vs other E3s: Fbw7
Type: biochemical
Conditions: 100 μM, value in brackets; read-out: % Inhibition Fbw7 @ (100 μM)
Starred links: 1 amine or outer side, 2 acyl side, 3 side chain; linkers in the order of their positions; H or OH if unused. Non-standard residues stand in square brackets, D forms with d. Residues, ends and D or L forms follow the SMILES beside them. *: point of attachment. Phe(3-Cl) = N[C@@H](Cc1cccc(Cl)c1)C(=O)O; Phe(3-F) = N[C@@H](Cc1cccc(F)c1)C(=O)O; Phe(2-F) = N[C@@H](Cc1ccccc1F)C(=O)O; X2 = COc1ccc(S(=O)(=O)*)cc1OC; Suc = O=C(CCC(=O)[*:2])[*:1]; Tos = Cc1ccc(S(=O)(=O)*)cc1; Ethoxycarbonyl = CCOC(=O)*; Moc = COC(=O)*
Test Readout: inhibition at 100 µM (%)

- Compound: "COc1ccc(C[C@H](NC(=O)[C@H](Cc2ccccc2F)NC(=O)CNC(=O)[C@H](CCC(=O)O)NC(=O)CCC(=O)O)C(=O)N[C@@H](CCC(=O)O)C(N)=O)cc1 [UBP006, Suc-EGF(2F)Y(Me)E-NH2] (Suc-EG[Phe(2-F)]Y(Me)E-NH2)"
  Unit Abbreviation: "%"
  Reported Measurement: 4
- Compound: "COc1ccc(S(=O)(=O)N[C@H](CC(=O)O)C(=O)N[C@@H](CCC(=O)O)C(=O)NCC(=O)N[C@@H](Cc2cccc(F)c2)C(=O)N[C@@H](Cc2c[nH]c3ccccc23)C(=O)N[C@@H](CCC(=O)O)C(N)=O)cc1OC [UBP029, 3,4-(MeO)2-PhSO2-dEGF(3F)WE-NH2] (X2-[dD]EG[Phe(3-F)]WE-NH2)"
  Unit Abbreviation: "%"
  Reported Measurement: 0
- Compound: "NC(=O)CC[C@H](NC(=O)CCC(=O)O)C(=O)NCC(=O)N[C@@H](Cc1cccc(F)c1)C(=O)N[C@@H](Cc1ccc([N+](=O)[O-])cc1)C(=O)N[C@@H](CCC(=O)O)C(N)=O [UBP012, Suc-QGF(3F)F(4NO2)E-NH2]"
  Unit Abbreviation: "%"
  Reported Measurement: 0
- Compound: "CCOC(=O)N[C@H](CC(=O)O)C(=O)N[C@@H](CCC(=O)O)C(=O)NCC(=O)N[C@@H](Cc1cccc(F)c1)C(=O)N[C@@H](Cc1c[nH]c2ccccc12)C(=O)N[C@@H](CCC(=O)O)C(N)=O [UBP023, EtO(CO)-dEGF(3F)WE-NH2] (Ethoxycarbonyl-[dD]EG[Phe(3-F)]WE-NH2)"
  Unit Abbreviation: "%"
  Reported Measurement: 12
- Compound: "COC(=O)N[C@H](CC(=O)O)C(=O)N[C@@H](CCC(=O)O)C(=O)NCC(=O)N[C@@H](Cc1cccc(F)c1)C(=O)N[C@@H](Cc1c[nH]c2ccccc12)C(=O)N[C@@H](CCC(=O)O)C(N)=O [UBP020, MeO(CO)-dEGF(3F)WE-NH2] (Moc-[dD]EG[Phe(3-F)]WE-NH2)"
  Unit Abbreviation: "%"
  Reported Measurement: 8
- Compound: "Cc1ccc(S(=O)(=O)N[C@H](CC(=O)O)C(=O)N[C@@H](CCC(=O)O)C(=O)NCC(=O)N[C@@H](Cc2cccc(Cl)c2)C(=O)N[C@@H](Cc2c[nH]c3ccccc23)C(=O)N[C@@H](CCC(=O)O)C(N)=O)cc1 [UBP034, Ts-dEGF(3Cl)WE-NH2] (Tos-[dD]EG[Phe(3-Cl)]WE-NH2)"
  Unit Abbreviation: "%"
  Reported Measurement: 6
- Compound: "Cc1ccc(S(=O)(=O)N[C@@H](CC(=O)O)C(=O)N[C@@H](CCC(=O)O)C(=O)NCC(=O)N[C@@H](Cc2cccc(F)c2)C(=O)N[C@@H](Cc2c[nH]c3ccccc23)C(=O)N[C@@H](CCC(=O)O)C(N)=O)cc1 [Ts-DEGF(3F)WE-NH2] (Tos-DEG[Phe(3-F)]WE-NH2)"
  Unit Abbreviation: "%"
  Reported Measurement: 8

Where do the numbers come from? From patent US20190106460A1.
